Target: T1, hFc tagged human LAG3 D1-D2 recombinant protein (human, UniProt P18627 23-261)
T1 construct: range 23-261; generated by Chempartner; also called hLAG3 D1-D2; not shown: human IgG Fc tag
T1 sequence (looked up): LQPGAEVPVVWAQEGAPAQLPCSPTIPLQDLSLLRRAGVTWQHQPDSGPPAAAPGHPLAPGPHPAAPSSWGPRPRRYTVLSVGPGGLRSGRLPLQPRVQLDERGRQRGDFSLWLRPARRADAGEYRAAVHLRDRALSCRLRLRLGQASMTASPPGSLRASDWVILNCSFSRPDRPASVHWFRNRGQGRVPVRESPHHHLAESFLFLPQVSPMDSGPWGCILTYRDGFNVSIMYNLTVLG
Experiment: ELISA, coated hFc-hLAG3 D1-D2
Procedure: Binding activity of the purified hybridoma antibodies against human LAG3 was detected by ELISA assay using hFc tagged human LAG3 D1-D2 recombinant protein. Briefly the antibodies were incubated with ELISA microplate coated antigens at 37° C. for 1 hour. After washing, horseradish peroxidase (HRP) labeled anti-human IgG 2nd Ab (Sigma) was added and incubated at 37° C. for 1 hour. […] OD 450 nm was read and EC₅₀ was calculated using GraphPad Prism9.0.
I'd appreciate it if you could supply pEC50 values for the items below.
Numbers only, as −log10 of the molar value.

Below, 2 binders whose answers are already recorded.
Give pEC50 for Antibody 039 (antibody, V domains shown, mouse hybridoma antibody) VH: EFQLQQSGPELVKPGASVKISCKASGYSFTDYNLNWVRQSNGKSLEWIGLVDPIYGTIRYNQNFKDKATLTVDQSSSTAYMQLNSLTSEDSAVYYCASIMTAVRYFDHWGQGTTLTVSS VL: DVLMTQTPLFLPVSLGDQASISCRSSLNIVHSDGNTYLEWYLQKPGQSPKLLIYKVSNRFSGVPDRFSGSGSGTDFTLKISGVEAEDLGVYYCFQGSHVPPTFGGGTKLEIK
10.40

Give pEC50 for Antibody 021 (antibody, V domains shown, mouse hybridoma antibody) VH: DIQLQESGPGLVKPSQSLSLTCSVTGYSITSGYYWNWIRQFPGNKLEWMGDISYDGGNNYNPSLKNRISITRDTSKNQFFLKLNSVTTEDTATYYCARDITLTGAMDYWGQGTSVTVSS VL: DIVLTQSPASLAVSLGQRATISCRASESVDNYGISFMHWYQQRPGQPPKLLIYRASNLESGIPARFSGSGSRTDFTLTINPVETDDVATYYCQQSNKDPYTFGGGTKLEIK
10.70

***
Give pEC50 for Antibody 029 (antibody, V domains shown, mouse hybridoma antibody) VH: DVKLVESGEDLVKPGGSLKLSCAASGFTFSSYAMSWVRQTPEKRLEWVAYVTSGGDYIYYADTVKGRFTISRDDVRNTLYLQMSSLKSEDTAMYYCTRVAYDYEWYFDVWGTGAPVTVSS VL: DIVMTQSHKFMSTSVGDRVSITCKASQDVTTAVAWYQQKPGQSPKLLIYSASYRYTGVSDRFTGSGSGTDFTFTISSVQAEDLALYYCQQHDSSPWTFGGGTKLEIK
10.22
